Source listed as PubChem BioAssay AID1552.

Below, each of the compounds is paired with its reported Kd value.
target: Ubiquitin-conjugating enzyme E2 N (Homo sapiens) (UniProt P61088); test: UBE2N binders by NMR, biophysical, purified protein (AID 1552); conditions: NMR binding to purified UBE2N
Sequence (P61088 whole entry, looked up): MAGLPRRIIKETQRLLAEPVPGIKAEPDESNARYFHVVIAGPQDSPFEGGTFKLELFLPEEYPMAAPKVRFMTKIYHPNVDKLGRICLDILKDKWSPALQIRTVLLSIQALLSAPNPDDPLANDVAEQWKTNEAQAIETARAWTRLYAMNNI
Calls of active or inactive are those of the source. The rule behind the calls is not given here.

[
  {
    "line.notation": "CCOc1ccc(C(=O)c2ccncc2)cc1",
    "Kd": "> 4 mM (inactive)"
  },
  {
    "line.notation": "CC(=O)c1c(O)cc(O)cc1O",
    "Kd": "> 4 mM (inactive)"
  },
  {
    "line.notation": "Cc1nc(-c2ccc(NS(C)(=O)=O)cc2)cs1",
    "Kd": "> 4 mM (inactive)"
  }
]

Field Kd (entry CN1CCC(N2CCOCC2)CC1 ) reads > 4 mM (inactive)

The compound CNc1nc(SC)nc(N2CCOCC2)n1 showed Kd equal to > 4 mM (inactive)

Just so you know, measured Kd for O=C1NC(=Nc2ccc(O)cc2)S/C1=C/c1ccco1 came out at > 4 mM (inactive)

###

target: Ubiquitin-conjugating enzyme E2 N (Homo sapiens) (UniProt P61088); assay: UBE2N binders by NMR, biophysical, purified protein (AID 1552); conditions: NMR binding to purified UBE2N
Activity calls are given as the source filed them. The rule behind the calls is not given here.
quantity.kind: Kd

Observe how each entry below is paired with its result.
[
  {
    "compound": "N#CCSc1nc2ccccc2c(=O)n1-c1ccccc1",
    "target.under.test": "Ubiquitin-conjugating enzyme E2 N (Homo sapiens) (UniProt P61088)",
    "quantity.kind": "Kd",
    "observed": "> 4 mM (inactive)"
  },
  {
    "compound": "Cc1cc(=O)cc(C)n1-c1ccccc1N",
    "target.under.test": "Ubiquitin-conjugating enzyme E2 N (Homo sapiens) (UniProt P61088)",
    "quantity.kind": "Kd",
    "observed": "> 4 mM (inactive)"
  },
  {
    "compound": "CC1(C)C(=O)[C@@H]2C[C@@]3(O)C4=CC(=O)O[C@@H](c5ccoc5)[C@]4(C)CCC3C(C)(C2=O)[C@H]1CC(=O)O (stereo partly specified)",
    "target.under.test": "Ubiquitin-conjugating enzyme E2 N (Homo sapiens) (UniProt P61088)",
    "quantity.kind": "Kd",
    "observed": "> 4 mM (inactive)"
  }
]

Kd reported for this compound Cc1nn(-c2ccccc2)nc1CO : > 4 mM (inactive)

Kd reported for this compound CNC(=S)NCCN1CCOCC1 : > 4 mM (inactive)

The measured Kd associated with CC(=O)Nc1cnn(Cc2ccc(Br)cc2)c1 reads > 4 mM (inactive)

Clc1ccc(-n2ccnc2)nn1 has a reported Kd of > 4 mM (inactive)

Entry under test: COc1cc(OC)c(-c2nc3cnccc3n2C)cc1OC . Its Kd was > 4 mM (inactive)

Record CC(C)=CCCC1(C)C=Cc2c(O)c3c(c(CC=C(C)C)c2O1)OC12C(=CC4CC1C(C)(C)OC2(C/C=C(/C)C(=O)O)C4=O)C3=O (stereo unspecified) , field Kd: > 4 mM (inactive)

Short answer for CCCNC(=O)c1cnc2n(c1=O)CCS2 : Kd was > 4 mM (inactive)

Input CC1=C(/C=C/C(C)=C/C=C/C(C)=C/C=C/C=C(C)/C=C/C=C(C)/C=C/C2=C(C)CCCC2(C)C)C(C)(C)CCC1 . Output Kd: > 4 mM (inactive)
